All values here come from paper PMC6657233.

biological target: adenosine transporter (AT; NBMPR-sensitive equilibrative nucleoside transporter subtype, ENT) (Homo sapiens); test: [3H]adenosine uptake inhibition in HeLa cells; conditions: read-out: Findings
Sequence (Q99808 2-456): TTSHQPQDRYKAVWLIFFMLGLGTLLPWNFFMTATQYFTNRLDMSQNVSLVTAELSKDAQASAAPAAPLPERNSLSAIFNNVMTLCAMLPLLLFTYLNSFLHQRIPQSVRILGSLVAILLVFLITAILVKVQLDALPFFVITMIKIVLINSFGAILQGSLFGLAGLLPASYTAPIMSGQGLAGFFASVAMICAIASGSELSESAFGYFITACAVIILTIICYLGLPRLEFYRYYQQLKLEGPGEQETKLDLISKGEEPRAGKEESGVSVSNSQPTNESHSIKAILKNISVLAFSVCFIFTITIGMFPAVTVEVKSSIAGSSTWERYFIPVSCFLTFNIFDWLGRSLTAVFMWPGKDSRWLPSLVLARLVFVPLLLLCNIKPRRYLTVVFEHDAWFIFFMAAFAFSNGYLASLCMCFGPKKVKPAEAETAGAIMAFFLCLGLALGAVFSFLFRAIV
value_kind: pIC50
pIC50 is defined as minus the log10 of a concentration measured in mol/L.

Quick note, pIC50 for "COCCOc1cnc2ccn([C@H](C)c3nnc4c(F)cc(-c5cnn(C)c5)cn34)c(=O)c2c1" landed at 6.55
